Tested on: adjuvant arthritis
test.summary: Adjuvant Arthritis Test
Assay type: in vivo, Lewis female rats
assay.setup: 3 mg/kg s.c. daily, 8th to 21st day; soft X-ray score, 22nd day
The threshold is inclusive: Bone destruction inhibition rate with respect to control group of exactly 50% counts as yes; values below receive no.

Some solved entries appear below for comparison.
Query: Dear colleague, could you confirm whether O=P(O)(O)C(O)(CC1CCSc2ccccc21)P(=O)(O)O (stereo not drawn) has Bone destruction inhibition rate with respect to control group at or above 50%?
Response: no

Query: Next compound up: O=P(O)(O)C(O)(CC1CCSc2ccc(Cl)cc21)P(=O)(O)O (stereo not drawn)
Response: yes

Next:
Query: Is Bone destruction inhibition rate with respect to control group for CCc1cccc2c1SCCC2CC(O)(P(=O)(O)O)P(=O)(O)O (stereo not drawn) at or above 50%?
Response: no

Query: Now give it for COc1cccc2c1SCCC2CC(O)(P(=O)(O)O)P(=O)(O)O (stereo not drawn) too.
Response: no

Query: Same thing, different compound: CSc1cccc2c1SCCC2CC(O)(P(=O)(O)O)P(=O)(O)O (stereo not drawn)
Response: no

Query: Then this compound: O=P(O)(O)C(O)(CC1CCSc2c(Cl)cccc21)P(=O)(O)O (stereo not drawn)
Response: yes

Reference for the values: patent US5565440A
